Provenance of the data: ChEMBL document CHEMBL4196061

# assayed target: DNA topoisomerase 1 (Homo sapiens) (UniProt P11387)
# assay notes: Inhibition of recombinant human topoisomerase 1-mediated DNA relaxation expressed in Saccharomyces cerevisiae TopI null strain RS190 at 80 uM using negatively supercoiled pUC18 as substrate pretreated with enzyme for 15 mins followed by substrate addition measured after 1 min by agarose gel electrophoresis
assay endpoint: inhibition (%)

>>> measured_value("S=P(c1ccccc1)(c1ccccc1)c1cccc2c(-c3ccccc3)cc(-c3ccccc3)nc12")
60
>>> measured_value("Fc1ccc([C@H]2C[C@@H](c3ccc(F)cc3)Nc3c2cccc3P(=S)(c2ccccc2)c2ccccc2)cc1")
84
>>> measured_value("Fc1ccc([C@@H]2C[C@H](c3ccccc3)c3cccc(P(=S)(c4ccccc4)c4ccccc4)c3N2)cc1")
39
>>> measured_value("O=P(c1ccccc1)(c1ccccc1)c1cccc2c(-c3ccc(F)cc3)cc(-c3ccc(F)cc3)nc12")
50

a: S=P(c1ccccc1)(c1ccccc1)c1cccc2c1N[C@H](c1ccc3ccccc3c1)C[C@@H]2c1ccccc1
b: O=P(c1ccccc1)(c1ccccc1)c1cccc2c1N[C@H](c1ccccc1)C[C@@H]2c1ccccc1
In: Could you kindly indicate whether a or b has the higher inhibition value? Your answer should be the label of the entry you select.
Out: a

----------
# assayed target: DNA topoisomerase 1 (Homo sapiens) (UniProt P11387)
# Sequence (whole entry): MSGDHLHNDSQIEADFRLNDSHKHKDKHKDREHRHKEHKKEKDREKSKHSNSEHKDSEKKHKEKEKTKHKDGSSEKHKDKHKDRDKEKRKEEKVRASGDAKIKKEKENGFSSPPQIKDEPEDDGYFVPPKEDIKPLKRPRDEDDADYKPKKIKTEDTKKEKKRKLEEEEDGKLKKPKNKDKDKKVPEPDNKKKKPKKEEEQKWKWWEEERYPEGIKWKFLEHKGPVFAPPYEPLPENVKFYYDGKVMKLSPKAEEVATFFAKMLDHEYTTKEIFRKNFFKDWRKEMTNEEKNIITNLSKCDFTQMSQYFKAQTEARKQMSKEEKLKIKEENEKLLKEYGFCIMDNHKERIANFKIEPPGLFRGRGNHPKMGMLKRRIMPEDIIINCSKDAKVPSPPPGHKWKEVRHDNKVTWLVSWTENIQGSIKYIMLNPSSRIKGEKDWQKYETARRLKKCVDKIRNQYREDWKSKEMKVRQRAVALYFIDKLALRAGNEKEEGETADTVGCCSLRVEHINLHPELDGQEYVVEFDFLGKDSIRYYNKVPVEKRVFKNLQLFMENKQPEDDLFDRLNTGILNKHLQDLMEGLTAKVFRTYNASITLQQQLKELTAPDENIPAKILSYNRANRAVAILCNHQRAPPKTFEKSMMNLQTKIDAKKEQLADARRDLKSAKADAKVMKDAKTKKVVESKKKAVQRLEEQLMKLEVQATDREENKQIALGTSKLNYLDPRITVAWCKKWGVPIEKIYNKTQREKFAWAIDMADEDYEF
# assay notes: Inhibition of recombinant human topoisomerase 1-mediated DNA relaxation expressed in Saccharomyces cerevisiae TopI null strain RS190 at 40 uM using negatively supercoiled pUC18 as substrate pretreated with enzyme for 15 mins followed by substrate addition measured after 3 mins by agarose gel electrophoresis
assay endpoint: inhibition (%)

The following compounds have reported results that may help.
>>> measured_value("c1ccc([C@H]2C[C@@H](c3ccccc3)Nc3c2cccc3P(c2ccccc2)c2ccccc2)cc1")
0
>>> measured_value("FC(F)(F)c1ccc(-c2cc(-c3ccccc3)c3cccc(P(=S)(c4ccccc4)c4ccccc4)c3n2)cc1")
18
>>> measured_value("S=P(c1ccccc1)(c1ccccc1)c1cccc2c1N[C@H](c1ccccc1)C[C@@H]2c1ccccc1")
0

P: Fc1ccc([C@H]2C[C@@H](c3ccc(F)cc3)Nc3c2cccc3P(c2ccccc2)c2ccccc2)cc1
Q: Cc1ccc([C@H]2C[C@@H](c3ccc(F)cc3)Nc3c2cccc3P(c2ccccc2)c2ccccc2)cc1
R: S=P(c1ccccc1)(c1ccccc1)c1cccc2c1N[C@H](c1ccc3ccccc3c1)C[C@@H]2c1ccccc1
In: Task field, ranking: reported inhibition, descending order. Sort the labels as requested; that list is your answer.
Out: Q, R, P
(Q: 52%, R: 19%, P: 0%)
